As shown below, each of these molecules has a reported Residual activity at 10 uM, HHC1 value.
- system-tested: chimeric HBV:HIV RNAseH HHC1 (Hepatitis B virus genotype D subtype ayw, UniProt P03156, DELINS787-795[…]/INS679M)
- Construct: HHC1 is an HRHPL derivative; made in house; host or cells: E. coli BL21 codon+
- Sequence (P03156 680-786, added parts left off, stated change not applied): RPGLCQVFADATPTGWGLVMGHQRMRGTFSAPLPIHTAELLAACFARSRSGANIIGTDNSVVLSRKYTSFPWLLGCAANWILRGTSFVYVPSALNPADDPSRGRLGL
- assay-remarks: Oligonucleotide-directed RNAseH cleavage assay, chimeric HHC1
- Type: biochemical
- condition-context: 10 μM; ± standard deviation, 3 to 7 replicates

[
  {
    "molecule": "[N-]=[N+]=NCc1cccc(C(=O)CC(=O)C(=O)O)c1",
    "Residual activity at 10 uM, HHC1, Percent DMSO control": 44
  },
  {
    "molecule": "CCOc1ccc(-c2c3cc(O)c(=O)cc-3oc3cc(O)c(O)cc23)cc1",
    "Residual activity at 10 uM, HHC1, Percent DMSO control": 58
  },
  {
    "molecule": "CN(C)c1ccc(-c2c3cc(O)c(=O)cc-3oc3cc(O)c(O)cc23)cc1",
    "Residual activity at 10 uM, HHC1, Percent DMSO control": 39
  },
  {
    "molecule": "O=C(O)c1ccc(-c2cccc(C=NNC(=O)c3cc(O)c(O)c(O)c3)c2)cc1",
    "Residual activity at 10 uM, HHC1, Percent DMSO control": 68
  },
  {
    "molecule": "O=c1cc2oc3cc(O)c(O)cc3c(-c3ccccc3)c-2cc1O",
    "Residual activity at 10 uM, HHC1, Percent DMSO control": 42
  },
  {
    "molecule": "O=c1cc2oc3cc(O)c(O)cc3c(-c3ccccn3)c-2cc1O",
    "Residual activity at 10 uM, HHC1, Percent DMSO control": 60
  },
  {
    "molecule": "COC(=O)Oc1nsnc1N1CCOCC1",
    "Residual activity at 10 uM, HHC1, Percent DMSO control": 37
  },
  {
    "molecule": "NC(=O)c1c(N)sc2c1CCCCC2",
    "Residual activity at 10 uM, HHC1, Percent DMSO control": 60
  },
  {
    "molecule": "Cc1cc(=O)oc2cc(O)c(O)cc12",
    "Residual activity at 10 uM, HHC1, Percent DMSO control": 39
  },
  {
    "molecule": "CCOC(=O)c1sc(NC(=O)CSc2nnc(Cc3ccccc3)o2)c(C#N)c1C",
    "Residual activity at 10 uM, HHC1, Percent DMSO control": 55
  },
  {
    "molecule": "O=c1c(O)c(-c2cc(O)c(O)c(O)c2)oc2cc(O)cc(O)c12",
    "Residual activity at 10 uM, HHC1, Percent DMSO control": 58
  },
  {
    "molecule": "O=c1c(O)c(-c2ccc(O)c(O)c2)oc2cc(O)c(O)c(O)c12",
    "Residual activity at 10 uM, HHC1, Percent DMSO control": 56
  },
  {
    "molecule": "NCc1ccc(-c2ccc(Cc3cc(=O)n(O)c4ncccc34)cc2)cc1",
    "Residual activity at 10 uM, HHC1, Percent DMSO control": 32
  },
  {
    "molecule": "COc1ccc2ccccc2c1C=NNC(=O)c1ccc(O)c(O)c1",
    "Residual activity at 10 uM, HHC1, Percent DMSO control": 65
  },
  {
    "molecule": "COc1ccc2ccccc2c1C=NNC(=O)c1cc(O)c(O)c(O)c1",
    "Residual activity at 10 uM, HHC1, Percent DMSO control": 72
  },
  {
    "molecule": "Cc1cc(C)c(C#N)c(=N)o1",
    "Residual activity at 10 uM, HHC1, Percent DMSO control": 36
  },
  {
    "molecule": "CC(Cc1ccc(O)c(O)c1)C(C)Cc1ccc(O)c(O)c1 (stereo not shown)",
    "Residual activity at 10 uM, HHC1, Percent DMSO control": 35
  },
  {
    "molecule": "Cc1sc2nc(-c3ccc([N+](=O)[O-])cc3)[nH]c(=O)c2c1C",
    "Residual activity at 10 uM, HHC1, Percent DMSO control": 32
  },
  {
    "molecule": "Cc1c2cc(O)c(=O)cc-2oc2cc(O)c(O)cc12",
    "Residual activity at 10 uM, HHC1, Percent DMSO control": 55
  }
]
